Sourced from ChEMBL document CHEMBL3351236

test: Drug level in intestine of Balb/c mouse xenografted with human Calu3 cells at 60 mg/kg, iv using compound formulated in Solutol HS15 and ethyl alcohol measured after 24 hrs by HPLC/MS method; assay type: ADME, organism-based, Calu-3; parameters: dose 60 mg/kg, route intravenous; settings: read-out: Drug uptake
Measure name: concentration at 24 h

Find the recorded concentration at 24 h belonging to OCc1cn(Cc2cccc(Cl)c2)c2ccccc12 and report it.
14300 ng/g

---

experiment: Drug level in lung of Balb/c mouse xenografted with human Calu3 cells at 60 mg/kg, iv using compound formulated in Solutol HS15 and ethyl alcohol measured after 24 hrs by HPLC/MS method; type: ADME, organism-based, Calu-3; set-up: dose 60 mg/kg, route intravenous; conditions: read-out: Drug uptake
Measure name: concentration at 24 h

Find the recorded concentration at 24 h belonging to OCc1cn(Cc2cccc(Cl)c2)c2ccccc12 and report it.
4200 ng/g

---

assay: Drug level in tumor of Balb/c mouse xenografted with human Calu3 cells at 60 mg/kg, iv using compound formulated in Solutol HS15 and ethyl alcohol measured after 24 hrs by HPLC/MS method; format: ADME, organism-based, Neoplasm, Calu-3; parameters: dose 60 mg/kg, route intravenous; details: read-out: Drug uptake
Measure name: concentration at 24 h

Find the recorded concentration at 24 h belonging to OCc1cn(Cc2cccc(Cl)c2)c2ccccc12 and report it.
4200 ng/g

---

experiment: Stability in injectable solution with Solutol HS15 and ethyl alcohol and 0.9% NaCl assessed as drug hydrolysis within 7 hrs at room temperature by HPLC method; type: physicochemical; details: injectable solution; read-out: Drug degradation
Measure name: degraded at 7 h (%)
One number for each entry, in %.

Find the recorded degraded at 7 h belonging to O=C(CC1CCCCC1)OCc1cn(Cc2cccc(Cl)c2)c2ccccc12 and report it.
10

---

assay: Stability in powder form in non-evacuated chambers at 37 degC after 90 days by HPLC method; assay type: physicochemical; details: read-out: Stability
Measure name: remaining at 2160 h

Find the recorded remaining at 2160 h belonging to O=C(CC1CCCCC1)OCc1cn(Cc2cccc(Cl)c2)c2ccccc12 and report it.
< 5%

---

Kindly supply the reported degraded at 7 h values for the records listed here.
assay: Stability in injectable solution with Solutol HS15 and ethyl alcohol and 0.9% NaCl assessed as drug hydrolysis within 7 hrs at 37 degC by HPLC method; type: physicochemical; settings: read-out: Drug degradation

{"Smiles text": "O=C(CC1CCCCC1)OCc1cn(Cc2cccc(Cl)c2)c2ccccc12", "degraded at 7 h": "> 10%"}

Find the recorded degraded at 7 h belonging to OCc1cn(Cc2cccc(Cl)c2)c2ccccc12 and report it.
> 20%

---

assay: Stability in powder form in non-evacuated chambers at 37 degC after 14 days by HPLC method; assay type: physicochemical; conditions: read-out: Stability
Measure name: remaining at 336 h

Find the recorded remaining at 336 h belonging to OCc1cn(Cc2cccc(Cl)c2)c2ccccc12 and report it.
< 5%
